# experiment: Drug concentration in Sprague-Dawley rat plasma at 10 mg/kg, po measured after 2 hrs by LC-MS/MS analysis
# Format: ADME, organism-based
parameter-measured: concentration at 2 h (ng/mL)
Write the number in ng/mL without appending the unit.

Please give the measured concentration at 2 h for this molecule: `Cc1cc(Cn2nc(Br)cc2Cl)cc(=O)n1C[C@H]1C[C@@H]1C#N` 362

* * *

# assayed-system: Glutamate receptor ionotropic, NMDA 2D (Homo sapiens, UniProt O15399+Q05586)
# Sequence (O15399 whole entry, one chain of several): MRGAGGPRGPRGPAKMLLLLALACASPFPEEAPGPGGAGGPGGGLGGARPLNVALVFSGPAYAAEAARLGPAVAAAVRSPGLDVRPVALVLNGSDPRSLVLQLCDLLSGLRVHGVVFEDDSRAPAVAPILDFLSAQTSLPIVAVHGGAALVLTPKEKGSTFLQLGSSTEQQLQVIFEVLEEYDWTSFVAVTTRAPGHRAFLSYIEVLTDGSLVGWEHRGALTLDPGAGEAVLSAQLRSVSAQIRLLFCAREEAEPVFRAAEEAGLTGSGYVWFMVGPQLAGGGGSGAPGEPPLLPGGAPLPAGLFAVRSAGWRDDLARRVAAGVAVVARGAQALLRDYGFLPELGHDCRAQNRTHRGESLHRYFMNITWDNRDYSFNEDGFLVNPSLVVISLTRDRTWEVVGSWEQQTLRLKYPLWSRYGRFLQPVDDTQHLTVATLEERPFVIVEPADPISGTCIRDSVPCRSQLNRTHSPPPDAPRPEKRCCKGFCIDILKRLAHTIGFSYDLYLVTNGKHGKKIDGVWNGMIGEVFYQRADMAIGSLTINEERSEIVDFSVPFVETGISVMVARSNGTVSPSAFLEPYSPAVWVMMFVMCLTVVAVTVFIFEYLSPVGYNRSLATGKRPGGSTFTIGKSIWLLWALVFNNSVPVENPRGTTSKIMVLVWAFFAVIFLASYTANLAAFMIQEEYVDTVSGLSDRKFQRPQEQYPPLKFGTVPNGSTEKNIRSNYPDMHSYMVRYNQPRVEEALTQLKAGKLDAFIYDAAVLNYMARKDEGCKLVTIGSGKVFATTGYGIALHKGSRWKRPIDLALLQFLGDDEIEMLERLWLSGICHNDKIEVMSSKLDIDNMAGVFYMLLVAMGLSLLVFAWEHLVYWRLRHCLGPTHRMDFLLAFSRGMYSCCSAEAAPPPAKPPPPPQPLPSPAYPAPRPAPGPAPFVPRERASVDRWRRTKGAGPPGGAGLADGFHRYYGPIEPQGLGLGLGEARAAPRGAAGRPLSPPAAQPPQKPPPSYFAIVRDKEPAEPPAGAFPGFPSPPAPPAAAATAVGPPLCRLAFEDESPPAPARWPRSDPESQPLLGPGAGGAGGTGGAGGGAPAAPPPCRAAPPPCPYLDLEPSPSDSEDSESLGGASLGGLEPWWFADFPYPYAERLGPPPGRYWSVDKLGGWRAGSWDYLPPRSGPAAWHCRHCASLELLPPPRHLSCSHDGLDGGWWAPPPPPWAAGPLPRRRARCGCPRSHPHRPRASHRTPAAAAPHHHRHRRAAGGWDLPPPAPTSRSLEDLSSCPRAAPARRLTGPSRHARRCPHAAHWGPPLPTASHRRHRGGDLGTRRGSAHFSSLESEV
# experiment: Positive allosteric modulator activity at GluN2D NMDA receptor (unknown origin) expressed in CHO cells co-expressing GluN1a in the presence of L-glutamate and glycine by Ca2+ influx assay
parameter-measured: pEC50
# pEC50 is unitless: minus log10 of the molar concentration; print number only

Please give the measured pEC50 for this compound: `Cc1cc(Cn2nc(Br)cc2Cl)cc(=O)n1C[C@H]1C[C@@H]1C#N` 5.29

* * *

# assayed-system: Glutamate receptor 2 (Homo sapiens)
# Sequence (P42262 whole entry, the tested form may be a part): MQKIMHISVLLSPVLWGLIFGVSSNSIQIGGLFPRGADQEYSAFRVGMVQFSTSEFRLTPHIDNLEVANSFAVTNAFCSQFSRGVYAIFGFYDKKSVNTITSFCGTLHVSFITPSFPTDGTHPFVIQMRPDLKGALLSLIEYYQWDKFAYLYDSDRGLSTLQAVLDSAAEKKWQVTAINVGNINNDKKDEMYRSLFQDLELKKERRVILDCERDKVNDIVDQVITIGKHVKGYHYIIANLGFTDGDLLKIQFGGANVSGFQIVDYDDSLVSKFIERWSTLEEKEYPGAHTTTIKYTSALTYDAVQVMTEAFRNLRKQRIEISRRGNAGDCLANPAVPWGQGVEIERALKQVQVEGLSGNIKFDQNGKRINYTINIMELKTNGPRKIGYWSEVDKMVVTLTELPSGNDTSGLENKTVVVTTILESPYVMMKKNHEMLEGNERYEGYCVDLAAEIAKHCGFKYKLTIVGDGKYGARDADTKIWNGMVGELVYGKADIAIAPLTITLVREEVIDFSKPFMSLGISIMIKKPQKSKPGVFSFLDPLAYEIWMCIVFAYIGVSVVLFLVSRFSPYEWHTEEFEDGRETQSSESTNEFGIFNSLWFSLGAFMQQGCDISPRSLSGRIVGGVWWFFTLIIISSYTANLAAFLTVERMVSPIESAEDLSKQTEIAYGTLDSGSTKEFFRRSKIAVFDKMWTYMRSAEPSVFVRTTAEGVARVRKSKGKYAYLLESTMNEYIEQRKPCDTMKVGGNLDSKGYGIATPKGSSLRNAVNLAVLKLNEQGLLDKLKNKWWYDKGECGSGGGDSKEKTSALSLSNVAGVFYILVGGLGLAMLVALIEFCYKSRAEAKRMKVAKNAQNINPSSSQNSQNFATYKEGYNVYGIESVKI
# experiment: Displacement of [3H]-HBT1 from His-tagged GluA2-AMPA receptor LBD (unknown origin) in presence of glutamate by scintillation proximity assay
parameter-measured: pIC50
Scale explanation: pIC50 corresponds to minus log10 of a concentration expressed in moles per litre.

// query pIC50 value for entry `CCN(Cc1cc(C)n(C[C@@H]2C[C@H]2C#N)c(=O)c1)c1ccc(F)cc1` 4.80

Look up pIC50: `CCN(Cc1cc(C)n(C[C@H]2C[C@@H]2C#N)c(=O)c1)c1ccc(F)cc1` 4.96

Fill in: pIC50 of CCN(Cc1cc(C)n(C[C@@H]2C[C@H]2C#N)c(=O)c1)c1ccc(F)cc1 (racemic) is ___ 5.00

Please give the measured pIC50 for this molecule: `Cc1cc(Cn2nc(C(F)(F)F)cc2Cl)cc(=O)n1C[C@H]1C[C@@H]1C#N` 4.68

Fill blank: measured pIC50 of the molecule `CCN(Cc1cc(C)n(CC2CCC2)c(=O)c1)c1ccc(F)cc1` is ____. 5.92

Which pIC50 is reported for this molecule? `CCN(Cc1cc(=O)n(CC2CC2)c(C)n1)c1ccc(F)cc1` 5.64

// lookup pIC50 for `CCN(Cc1cc(C)n(CC2(C#N)CC2)c(=O)c1)c1ccc(F)cc1` 5.64
